Tested on: Colletotrichum fragariae
Assay: 96-well microtiter fungal growth assay;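 note: percent relative to untreated positive growth controls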
Assay type: cell-based
Details: 30 μm, 48 hrs
Recorded Endpoint: Mean percent fungal growth inhibition of Colletotrichum fragariae (%)

[[record]]
molecule = "O=C1C2CC=CCC2C(=O)N1SC(Cl)(Cl)Cl (stereo not shown)"
tested_system = "Colletotrichum fragariae"
observed_value = "−99.7"

[[record]]
molecule = "CO/C=C(/C(=O)OC)c1ccccc1Oc1cc(Oc2ccccc2C#N)ncn1"
tested_system = "Colletotrichum fragariae"
observed_value = "−82.0"

[[record]]
molecule = "Cc1cc(C2CC2)nc(Nc2ccccc2)n1"
tested_system = "Colletotrichum fragariae"
observed_value = "−95.5"

[[record]]
molecule = "COC(/C=C/c1ccccc1)=C1\\C(=O)C=C(C)C1=O"
tested_system = "Colletotrichum fragariae"
observed_value = "−96.9"


* * *

System: M. intracellulare ATCC 23068
Assay: In vitro antibacterial assay (modified method of Franzblau, Alamar Blue)
Format: cell-based
Settings: Mycobacterium intracellulare, ATCC23068; M. intracellulare ATCC 23068
Recorded Endpoint: MIC (µg/mL)

[[record]]
molecule = "O=C(O)c1cn(C2CC2)c2cc(N3CCNCC3)c(F)cc2c1=O [CIP, ciprofloxacin, reference compound]"
tested_system = "M. intracellulare ATCC 23068"
recorded_endpoint = "MIC"
units_text = "µg/mL"
observed_value = 0.63

[[record]]
molecule = "CC1=CC(=O)/C(=C(O)/C=C/c2ccccc2)C1=O"
tested_system = "M. intracellulare ATCC 23068"
recorded_endpoint = "MIC"
units_text = "µg/mL"
observed_value = 20

[[record]]
molecule = "CC(=O)OC(/C=C/c1ccccc1)=C1/C(=O)C=C(C)C1=O"
tested_system = "M. intracellulare ATCC 23068"
recorded_endpoint = "MIC"
units_text = "µg/mL"
observed_value = 20

[[record]]
molecule = "CCOC(/C=C/c1ccccc1)=C1/C(=O)C=C(C)C1=O"
tested_system = "M. intracellulare ATCC 23068"
recorded_endpoint = "MIC"
units_text = "µg/mL"
observed_value = 20

[[record]]
molecule = "COC(/C=C/c1ccccc1)=C1\\C(=O)C=C(C)C1=O"
tested_system = "M. intracellulare ATCC 23068"
recorded_endpoint = "MIC"
units_text = "µg/mL"
observed_value = 2.5


* * *

Tested on: Colletotrichum gloeosporioides
Experiment: 96-well microtiter fungal growth assay;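 note: percent relative to untreated positive growth controls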
Type: cell-based
Conditions: 0.3 μm, 48 hrs
Recorded Endpoint: Mean percent fungal growth inhibition of Colletotrichum gloeosporoides (%)

[[record]]
molecule = "O=C1C2CC=CCC2C(=O)N1SC(Cl)(Cl)Cl (stereo not shown) [Captan]"
units_text = "%"
observed_value = 31.5

[[record]]
molecule = "CO/C=C(/C(=O)OC)c1ccccc1Oc1cc(Oc2ccccc2C#N)ncn1 [Azoxystrobin]"
units_text = "%"
observed_value = "−91.2"

[[record]]
molecule = "Cc1cc(C2CC2)nc(Nc2ccccc2)n1 [Cyprodinil]"
units_text = "%"
observed_value = "−89.9"

[[record]]
molecule = "COC(/C=C/c1ccccc1)=C1\\C(=O)C=C(C)C1=O [Compound 1, coruscanone A]"
units_text = "%"
observed_value = 37.7


* * *

The following compounds are listed with their measured IC50 values.
Test system: C. krusei ATCC 6258
Experiment: In vitro antimicrobial assay (modified NCCLS), Candida media pH 4.5
Format: cell-based, Candida krusei
Details: Pichia kudriavzevii, ATCC6258; C. krusei ATCC 6258, pH 4.5; read-out: IC50 (50% inhibitory concentration)
Recorded Endpoint: IC50 (µg/mL)

[[record]]
compound = "COC(C)=C1C(=O)C=C(C)C1=O [Compound 6]"
tested_system = "C. krusei ATCC 6258"
units_text = "µg/mL"
observed_value = 10

[[record]]
compound = "CC1=CC(=O)/C(=C(O)/C=C/c2ccccc2)C1=O [Compound 2, coruscanone B]"
tested_system = "C. krusei ATCC 6258"
units_text = "µg/mL"
observed_value = 4.5

[[record]]
compound = "CCOC(/C=C/c1ccccc1)=C1/C(=O)C=C(C)C1=O [Compound 7]"
tested_system = "C. krusei ATCC 6258"
units_text = "µg/mL"
observed_value = 8

[[record]]
compound = "CC(=O)OC(/C=C/c1ccccc1)=C1/C(=O)C=C(C)C1=O [Compound 8]"
tested_system = "C. krusei ATCC 6258"
units_text = "µg/mL"
observed_value = 9


* * *

System: Botrytis cinerea
Assay: 96-well microtiter fungal growth assay
Assay type: cell-based
Conditions: Botrytis cinerea, 48 h, read-out: IC50 (growth inhibition)
Recorded Endpoint: IC50

[[record]]
mol = "COC(/C=C/c1ccccc1)=C1\\C(=O)C=C(C)C1=O"
observed_value = "< 1550 nM"


* * *

Tested on: Colletotrichum gloeosporioides
Assay: 96-well microtiter fungal growth assay;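 note: percent relative to untreated positive growth controls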
Format: cell-based
Conditions: 3.0 μm, 48 hrs
The following molecules are listed with their measured Mean percent fungal growth inhibition of Colletotrichum gloeosporoides values.
Recorded Endpoint: Mean percent fungal growth inhibition of Colletotrichum gloeosporoides

[[record]]
molecule = "CO/C=C(/C(=O)OC)c1ccccc1Oc1cc(Oc2ccccc2C#N)ncn1 [Azoxystrobin]"
observed_value = "−96.3 ± 0.9%"

[[record]]
molecule = "COC(/C=C/c1ccccc1)=C1\\C(=O)C=C(C)C1=O [Compound 1, coruscanone A]"
observed_value = "−79.9 ± 2.8%"

[[record]]
molecule = "Cc1cc(C2CC2)nc(Nc2ccccc2)n1 [Cyprodinil]"
observed_value = "−85.4 ± 6.6%"

[[record]]
molecule = "O=C1C2CC=CCC2C(=O)N1SC(Cl)(Cl)Cl (stereo not shown) [Captan]"
observed_value = "−97.3 ± 1.5%"


* * *

System: Phomopsis obscurans
Assay: 96-well microtiter fungal growth assay
Format: cell-based
Conditions: 30 μm, 144 hrs
The following compounds are listed with their measured Percent change in fungal growth vs control (negative = inhibition) values.
Recorded Endpoint: Percent change in fungal growth vs control (negative = inhibition) (%)

[[record]]
compound = "COC(/C=C/c1ccccc1)=C1\\C(=O)C=C(C)C1=O"
observed_value = "−96.9"

[[record]]
compound = "O=C1C2CC=CCC2C(=O)N1SC(Cl)(Cl)Cl (stereo not shown)"
observed_value = "−99.6"

[[record]]
compound = "CO/C=C(/C(=O)OC)c1ccccc1Oc1cc(Oc2ccccc2C#N)ncn1"
observed_value = "−98.2"

[[record]]
compound = "Cc1cc(C2CC2)nc(Nc2ccccc2)n1"
observed_value = "−81.5"


* * *

Tested on: Colletotrichum fragariae
Assay: 96-well microtiter fungal growth assay;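 note: percent relative to untreated positive growth controls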
Assay type: cell-based
Conditions: 0.3 μm, 72 hrs
Procedure: Pathogen collection. […] Inoculum preparation. […] Conidia concentrations were determined photometrically, from a standard curve based on the absorbance at 625 nm and suspensions were then adjusted with sterile distilled water to a concentration of 1.0×10^6 conidia/mL. Microtiter assay. […] Growth was then evaluated by measuring absorbance of each well at 620 nm using a microplate photometer (Packard Spectra Count, Packard Instrument Co., Downers Grove, Ill.). […]
Recorded Endpoint: Mean percent fungal growth inhibition of Colletotrichum fragariae

[[record]]
molecule = "Cc1cc(C2CC2)nc(Nc2ccccc2)n1"
tested_system = "Colletotrichum fragariae"
observed_value = "−54.1 ± 19.3%"

[[record]]
molecule = "O=C1C2CC=CCC2C(=O)N1SC(Cl)(Cl)Cl (stereo not shown)"
tested_system = "Colletotrichum fragariae"
observed_value = "−17.5 ± 15.6%"

[[record]]
molecule = "COC(/C=C/c1ccccc1)=C1\\C(=O)C=C(C)C1=O"
tested_system = "Colletotrichum fragariae"
observed_value = "−4.8 ± 5.0%"

[[record]]
molecule = "CO/C=C(/C(=O)OC)c1ccccc1Oc1cc(Oc2ccccc2C#N)ncn1"
tested_system = "Colletotrichum fragariae"
observed_value = "−33.5 ± 17.4%"


* * *

Test system: Phomopsis obscurans
Assay: 96-well microtiter fungal growth assay
Type: cell-based
Conditions: Paraphomopsis obscurans; Phomopis obscurans, at 120 hr; read-out: IC50 (growth inhibition)
Recorded Endpoint: IC50

[[record]]
compound = "COC(/C=C/c1ccccc1)=C1\\C(=O)C=C(C)C1=O [Compound 1, coruscanone A]"
observed_value = "< 3.1 µM"


* * *

The following compounds are listed with their measured Percent change in fungal growth vs control (negative = inhibition) values.
System: Phomopsis obscurans
Test: 96-well microtiter fungal growth assay
Type: cell-based
Details: 3.0 μm, 144 hrs
Protocol: Pathogen collection. […] Inoculum preparation. […] Conidia concentrations were determined photometrically, from a standard curve based on the absorbance at 625 nm and suspensions were then adjusted with sterile distilled water to a concentration of 1.0×10^6 conidia/mL. Microtiter assay. […] Growth was then evaluated by measuring absorbance of each well at 620 nm using a microplate photometer (Packard Spectra Count, Packard Instrument Co., Downers Grove, Ill.). […]
Recorded Endpoint: Percent change in fungal growth vs control (negative = inhibition) (%)

[[record]]
compound = "Cc1cc(C2CC2)nc(Nc2ccccc2)n1"
tested_system = "Phomopsis obscurans"
observed_value = "−72.6"

[[record]]
compound = "O=C1C2CC=CCC2C(=O)N1SC(Cl)(Cl)Cl (stereo not shown)"
tested_system = "Phomopsis obscurans"
observed_value = "−98.3"

[[record]]
compound = "CO/C=C(/C(=O)OC)c1ccccc1Oc1cc(Oc2ccccc2C#N)ncn1"
tested_system = "Phomopsis obscurans"
observed_value = "−87.5"

[[record]]
compound = "COC(/C=C/c1ccccc1)=C1\\C(=O)C=C(C)C1=O"
tested_system = "Phomopsis obscurans"
observed_value = "−13.3"

